Molecular target: Ubiquitin (Homo sapiens, UniProt P0CG48)
Test: NMR titration
Readout Type: pKd
Lab note — pKd values are minus log10 of concentrations in M.

Qu. # get_value(readout='pKd', item= CIN85 SH3c 263-333 (protein) DSRTKSKDYCKVIFPYEAQNDDELTIKEGDIVTLINKDCIDVGWWEGELNGRRGVFPDNFVKLLPPDFEKE )
Ans. 3.43
